Attribution: the supplement of paper PMC10567573

- ASSAY TEXT: protein stability index of a GFP-peptide fusion (GPS, HEK-293T) (PSI 1-6); higher = more stable;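 note: 24-mer peptide tiles fused after GFP, lentivirally expressed, FACS-sorted into six equal bins by GFP/DsRed ratio, decoded by Illumina sequencing, PSI is the read-weighted mean bin number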
- SETUP CONDITIONS: treatment: MLN4924 1 uM, 8 h; c terminus: a fixed tail appended
Lab note: compare protein stability index against 4. Equal or greater, write 1.0. Smaller, write 0.0.

>>> label("NFKPRGYSECIVTVGGEERVSRKP [GAN]")
1.0
>>> label("AACSSKRSPIIDVKNDRDRVGHKS [SERPINB5]")
1.0
>>> label("WGPWGPWGDCSRTCGGGVQFSSRD [ADAMTS4]")
0.0
>>> label("NHILECEFYLLELMDCCLIVYHPY [CCNC]")
0.0
>>> label("NSPLHIAALNNHPDIMNLLIKSGA [FEM1C]")
0.0
>>> label("EILHQQNIHQLQNRLSELEVANKD [SASS6]")
1.0
>>> label("GSCQLGGGRGVSTCSTRFVSGGSA [KRT13]")
0.0
>>> label("CSTTDHPYKKPYMETSPSEEDSFY [TBX5]")
1.0
>>> label("AGDAEVCPTPARLATTEKKTEQQR [NOP53]")
1.0
>>> label("STDTESNNEEQRSGLIYLTNHIAP [IKZF1]")
1.0
>>> label("HEVREFKQLIYRVRRTDDTPVVLV [RIT1]")
0.0
>>> label("NKLWELCCQWLKPKMRSKEQILEL [ZNF449]")
0.0

---

- ASSAY TEXT: protein stability index of a GFP-peptide fusion (GPS, HEK-293T) (PSI 1-6); higher = more stable
- SETUP CONDITIONS: treatment: MLN4924 1 uM, 8 h; c terminus: a fixed tail appended
MEASUREMENT LABEL: protein stability index

>>> result_number("MDSRTVFGAWRCLLDATVAGGQTR [FCHSD1]")
2.01
>>> result_number("GCQLDLRYADLEAVNRARRPLARP [RHOBTB1]")
3.16
>>> result_number("FAALRASLVAPLLLELAGEVTDTG [MYORG]")
2.36
>>> result_number("SQFKILVSLLENNIYVHDLLTFQQ [VPS39]")
3.21
>>> result_number("AFSYSSSSRFSSSRLLGSASPSSS [PRPH]")
3.09
>>> result_number("GYNLRALAEGVSASLHTLLGDPCP [HDAC6]")
2.64
>>> result_number("SEGEAMEICSEPVAASPAPAGERR [ZNF511]")
5.22
>>> result_number("VTLLVALKVRYRERITILRGNHES [PPP2CA]")
2.67
>>> result_number("RDYVRLFGIKCAKCQVGFSSSDLV [ISL2]")
2.25

---

# key: entry, value: protein stability index
- ASSAY TEXT: protein stability index of a GFP-peptide fusion (GPS, HEK-293T) (PSI 1-6); higher = more stable
- SETUP CONDITIONS: treatment: DMSO; c terminus: a fixed tail appended
MEASUREMENT LABEL: protein stability index

>>> result_number("VRENVPRVLNSAKEKSSTVPIPTV [SOAT1]")
4.16
>>> result_number("ILGKVILWILHLLLECYIQYHHSK [TMEM192]")
2.99
>>> result_number("VYSQASTMSIPVAMETDGPLFEDV [PPP2R5C]")
3.94
>>> result_number("EVLGPLCLMLLMGTVHCQIVSTQI [PHTF1]")
3.27
>>> result_number("PLGAGNLGPELIKESNANPIFMRK [DPCD]")
4.34
